S. typhimurium (ATCC BAA-185) measurements of MIC, listed per entry.
PROPERTY: MIC (µg/mL)

INSERT INTO measurements (compound, property, unit_label, recorded_result) VALUES
  ('CN(C)CCOc1cc2[nH]c(-c3cc4ccc(Br)cc4[nH]3)cc2cc1Cl [Compound 199]', 'MIC', 'µg/mL', 32),
  ('O=C(O)CCCC(=O)c1c(-c2cc3cc(Cl)ccc3[nH]2)[nH]c2cc(Br)ccc12 [Compound 102]', 'MIC', 'µg/mL', 8),
  ('NCCNC(=O)c1c(-c2cc3cc(Cl)ccc3[nH]2)[nH]c2cc(Br)ccc12 [Compound 206]', 'MIC', 'µg/mL', 64),
  ('C[N+](C)(C)CCON=C(c1c(-c2cc3cc(Cl)ccc3[nH]2)[nH]c2cc(Br)ccc12)C(F)(F)F (racemic) [Compound 221]', 'MIC', 'µg/mL', 64),
  ('NCCOc1cc2[nH]c(-c3cc4ccc(Br)cc4[nH]3)cc2cc1Cl [Compound 201]', 'MIC', 'µg/mL', 16);
